# target_or_system: T1, HLA-A2 molecules on T2 cells (human)
# T1 construct: whole, on cells; MHC class I molecule on the cell surface; also called HLA-A2.1
# assay_remarks: T2 cell HLA-A2 upregulation assay, flow cytometry, peptide 25 µg/ml
Strictly below 300 MFI in T2 binding (MFI): fulfilled. Otherwise: not fulfilled.

Inquiry: A record lists VEGDCQEMDL (Synthetic peptide; also called P59-68) [P59 (native) PAGE4 peptide, amino acids 59-68] . Is its T2 binding (MFI) below 300 MFI?
Reply text: fulfilled

Inquiry: Consider YLGDCQEMDV (also called P59-2) [P59 (59Y/60L/68V) PAGE4 analogue peptide] . Does its T2 binding (MFI) lie strictly below 300 MFI?
Reply text: not fulfilled

Inquiry: Item KTPPNPKHA (Synthetic peptide; also called P84-92) [P84 (native) PAGE4 peptide, amino acids 84-92] : T2 binding (MFI) beneath 300 MFI, strictly?
Reply text: fulfilled

Inquiry: Please check: T2 binding (MFI) for QLAPDVVAFV [P16 (17L) PAGE4 agonist peptide] , strictly under 300 MFI or not?
Reply text: not fulfilled

Inquiry: Does the reported T2 binding (MFI) of YLPPNPKHV (also called P84-1) [P84 (84Y/85L/92V) PAGE4 agonist peptide] stay below 300 MFI?
Reply text: not fulfilled

Inquiry: Find out if reported T2 binding (MFI) for ALWGQDVTSV (Positive control of the T2 assay; also called positive control) [MUC-1 peptide] is less than 300 MFI
Reply text: not fulfilled

Inquiry: Is 300 MFI strictly greater than the binder's reported T2 binding (MFI)? binder: YLAPDVVAFV (also called P16-2) [P16 (16Y/17L) PAGE4 agonist peptide]
Reply text: not fulfilled

These measurements were taken from patent US20090035266A1.
